- Test system: LOX IMVI melanoma
- Assay Name: NCI tumour cell line growth inhibition, 48 h
Reported TGI values are given for each entry in this list.
Kindly provide the numeric value in µM only, without the unit symbol.

# Compound, Output Unit, TGI
measured = [
    ("C[C@@H]1O[C@@H](O[C@H]2C[C@@H](O)[C@]3(CO)C4C(CC[C@]3(O)C2)[C@@]2(O)CC[C@H](C3=CC(=O)OC3)[C@@]2(C)C[C@H]4O)[C@H](O)[C@H](O)[C@H]1O (stereo partly drawn)", "µM", 0.0882),
]

The compound listed as COc1ccc(CN2C(=O)CCC/C=C\[C@H]2CI)cc1 has a reported TGI of 34

The compound listed as Nc1ccccc1C#C/C=C\C#Cc1ccc(F)cc1F has a reported TGI of 19.9

The compound listed as O=C1Nc2ccc(F)c3c(OCCO)cc(-c4ccc[nH]4)c1c23 has a reported TGI of 5.38

---

- Tested on: HOP-92 NSCLC
- Assay Name: NCI tumour cell line growth inhibition, 48 h; in the data active = GI50 below about 0.43 µM; inactive = the rest
Select the matching outcome among Yes for active, No for inactive

# Compound, Label Class
measured = [
    ("C[C@]12CC[C@H](O)CC1=CC[C@@H]1[C@@H]2CC[C@]2(C)C(=O)/C(=C/c3cccc(OCCCn4ccnc4)c3)C[C@@H]12", "No"),
    ("Brc1c[n+](Cc2ccc3ccccc3c2)cn1Cc1ccc2ccccc2c1", "No"),
    ("COC1/C=C/O[C@@]2(C)Oc3c(C)c(O)c4c(O)c(cc(O)c4c3C2=O)NC(=O)/C(C)=C\\C=C\\[C@H](C)C(O)[C@@H](C)[C@@H](O)[C@@H](C)[C@H](OC(C)=O)[C@@H]1C (stereo partly drawn)", "No"),
    ("COc1cc(-c2c3c(cn2S(=O)(=O)c2ccccc2)-c2nc(N)sc2CC3)cc(OC)c1OC", "Yes"),
]

Fill in: this test's call for CCCC[C@@H]1NC(=O)[C@H](CCCCN)NC(=O)[C@H](CCCNC(=N)N)NC(=O)[C@H](CC(C)C)NC(=O)[C@@H](NC(=O)[C@H](Cc2cccc(Cl)c2)NC(=O)[C@@H]2CCCN2C(=O)[C@@H](NC(C)=O)C(C)C)CCSSC[C@@H](C(=O)N[C@@H](CCCCN)C(=O)N2CCC[C@H]2C(=O)N2CCC[C@H]2C(=O)N[C@@H](CCC(=O)O)C(N)=O)NC(=O)[C@H](Cc2ccccc2)NC(=O)[C@H](CO)NC(=O)[C@H](C)NC(=O)[C@@H]2CCCN2C1=O is ___ No

Fill in: this test's call for O=C(Cn1ccnc1[N+](=O)[O-])N(CCO)CCO is ___ No

Fill in: this test's call for C=C1CC2CC[C@@]34C[C@@H]5O[C@@H]6C(O[C@H]7CC[C@H](CC(=O)OC8[C@@H](C)C9OC%10C[C@]%11(C[C@@H]%12O[C@@]%13(C[C@@H](C)[C@@H]%12O%11)C[C@H](C)[C@@H]%11OC%12CC(C(O)CO)OC%12C[C@@H]%11O%13)OC%10CC9O[C@H]8C[C@H]8O[C@@H](CC[C@@H]1O2)C[C@@H](C)C8=C)O[C@@H]7[C@@H]6O3)C5O4 (stereo partly drawn) is ___ Yes

Fill in: this test's call for O=C(CC12CC3CC(CC(C3)C1)C2)NCCOCCOCCNC(=O)c1cc2c(o1)C(=O)c1ccccc1C2=O is ___ No

Fill in: this test's call for CCN(CC)c1ccc(NC(C(=O)c2ccccc2)c2ccccc2)cc1 (stereo not drawn) is ___ No

Fill in: this test's call for COc1ccccc1-c1cc2c3c(nc4ccccc42)C(=O)c2cccnc2-c3n1 is ___ No

---

- System: SN12C renal
- Assay Name: NCI tumour cell line growth inhibition, 48 h
Assay Readout: TGI

# Compound, Test Target, Value
records = [
    ("CC(C)(C)c1nc2c(o1)C(=Nc1ccccc1)c1ccccc1C2=O", "SN12C renal", "14.4 µM"),
    ("Cc1cc(N(CCCl)CCCl)ccc1C=Nc1cccnc1", "SN12C renal", "> 100 µM"),
    ("CCC1(O)C=CC(=O)C=C1", "SN12C renal", "> 100 µM"),
    ("Cc1cccc(C)c1NC(=O)CCC(=O)NNC(=O)c1cc(O)c2ccccc2c1", "SN12C renal", "> 100 µM"),
    ("O=C1C(=O)c2ccc(Br)cc2-c2cc(Br)ccc21", "SN12C renal", "11.2 µM"),
    ("COc1ccc2c(c1)C(=O)c1c-2c(NCCCN(C)C)nc2ccccc12", "SN12C renal", "6.84 µM"),
    ("COc1ccc(-c2nc3ncccn3c2-c2ccc(S(C)=O)cc2)cc1 (stereo not drawn)", "SN12C renal", "> 100 µM"),
    ("O=C(NC1CCCCC1)c1c(O)[nH]c(=S)[nH]c1=O", "SN12C renal", "> 100 µM"),
    ("O=C1OCC(c2ccc(O)c(O)c2)=C1c1cc(O)c(O)c(O)c1", "SN12C renal", "29.6 µM"),
    ("N#C/C(=C\\c1ccc(CP(=O)(O)O)cc1)C(N)=O", "SN12C renal", "> 100 µM"),
]

The compound listed as N#CC(c1ccc(O)cc1)N1CCN(C(C#N)c2ccc(O)cc2)CC1 (stereo not drawn) has a reported TGI of > 100 µM

The compound listed as COc1c2nc(CCl)n(C)c(=O)c2c(OC)c2c(=O)n(C)c(CCl)nc12 has a reported TGI of 3.56 µM

The compound listed as COc1ccc(-n2c(CCCC(=O)O)nc3c2C(=O)c2ccccc2C3=O)cc1 has a reported TGI of > 100 µM

The compound listed as O=[N+]([O-])c1ccccc1S(=O)c1ccccc1 (stereo not drawn) has a reported TGI of > 100 µM

The compound listed as COc1cc2c(cc1OC)C1c3ccccc3C(C#N)(C2)N(C(=O)c2ccccc2)C1O (stereo not drawn) has a reported TGI of > 100 µM

The compound listed as COC(=O)/C(=C/c1ccc(OC)cc1)C(C(=O)O)=C(C)C has a reported TGI of > 100 µM

The compound listed as O=CC1=CCCC2(C1)OCCO2 has a reported TGI of > 100 µM

The compound listed as O=c1cc2n(c(=O)[nH]1)C1OC(C(O)C1O)[C@@H]2CCO (stereo partly drawn) has a reported TGI of > 100 µM

The compound listed as CS(=O)(=O)C1S(=O)(=O)OCCOS1(=O)=O has a reported TGI of > 100 µM

The compound listed as OCC1SC(n2cnc3cncnc32)C(O)C1O (stereo not drawn) has a reported TGI of > 100 µM

The compound listed as COc1ccc(C[C@@H]2CN(C(=O)c3ccccc3)[C@H](Cc3ccc(O)cc3)CN2C(=O)c2ccccc2)cc1Br has a reported TGI of > 100 µM

The compound listed as O=C(CCN1CCCCC1CCO)Nc1ccc2c(c1)C(=O)c1ccc(NC(=O)CCN3CCCCC3CCO)cc1C2=O (stereo not drawn) has a reported TGI of 16 µM

The compound listed as c1ccc2[nH]c(-c3nc4ccccc4o3)nc2c1 has a reported TGI of > 100 µM

---

- Tested on: IGROV1 ovarian
- Assay Name: NCI tumour cell line growth inhibition, 48 h
Assay Readout: TGI

The compound listed as COc1ccc(-c2cc3cccc(OC)c3c(=O)o2)cc1OC has a reported TGI of > 100 µM

The compound listed as C=C(NC(=O)C(=C)NC(=O)c1csc(C2=NC3c4csc(n4)C4NC(=O)c5csc(n5)C(C(C)(O)C(C)O)NC(=O)C5CSC(=N5)/C(=C/C)NC(=O)C(C(C)O)NC(=O)c5csc(n5)C3(CC2)NC(=O)C(C)NC(=O)C(=C)NC(=O)C(=C)NC(=O)C(C(C)C)NC2C=Cc3c(C(C)O)cc(nc3C2O)C(=O)OC4C)n1)C(N)=O (centres undefined) has a reported TGI of 58.9 µM

The compound listed as CCOC(=O)c1nc2c3c(ncn2n1)Oc1c(c(-c2ccccc2)nn1-c1ccccc1)C3c1ccc(OC)c(OC)c1 (centres undefined) has a reported TGI of > 100 µM

---

- Tested on: HOP-92 NSCLC
- Assay Name: NCI tumour cell line growth inhibition, 48 h
Reported TGI values are given for each entry in this list.

// solved cases for TGI follow
# Compound, Value
records = [
    ("CCOc1ncn(-c2ccc(NC(=S)Nc3cccc(O)c3)cc2)n1", "> 100 µM"),
    ("OCCN1CCN(CCCN2c3ccccc3Sc3ccc(C(F)(F)F)cc32)CC1", "3.81 µM"),
    ("COc1cc2c(cc1O)[C@H](C)C(c1ccc(Cl)cc1)O2 (some centres undefined)", "40.4 µM"),
    ("C1=C2SSC3=CC=C(SSc4ccc(s4)SSC4=CC=C(SSC(=C1)S2)S4)S3", "> 100 µM"),
    ("CS(=O)(=O)c1nccc(-c2c(-c3cccc(OCc4ccc(F)cc4)c3)nc3sccn23)n1", "> 100 µM"),
]

// switching to the query compound
The compound listed as CCOC(=O)C1NCCc2c1[nH]c1ccccc21 (centres undefined) has a reported TGI of > 10 µM
